# Tested on: LOX IMVI melanoma
# METHOD: NCI tumour cell line growth inhibition, 48 h
RECORDED_METRIC: TGI

See these solved cases before continuing.
Query: // fetch TGI given entry Cc1c(N=Nc2ccc(Cl)cc2)c(-c2ccccc2)n(C2OC(CO)C(O)C(O)C2O)c(=S)c1C#N (stereo not given)
Reply: 32.7 µM

Query: // fetch TGI given entry C/C(Cc1ccccc1)=N\NC(N)=S
Reply: > 100 µM

Query: // fetch TGI given entry Cc1cc(N(CCC#N)CCC#N)ccc1N=Nc1ccc(C(=O)O)cc1
Reply: > 100 µM

Query: // fetch TGI given entry Oc1cccnc1[Se]
Reply: > 100 µM

Query: // fetch TGI given entry O=C(O)[C@@H]1CCS(=O)(=O)N1
Reply: > 100 µM

Next:
Query: // fetch TGI given entry CN=C(N=Nc1c(O)[nH]c2ccccc12)SCC(=O)c1ccc(Br)cc1
Reply: > 47.7 µM

Query: // fetch TGI given entry CCOC(=O)C(Cc1ccc(CCCC(=O)NCCC(=O)Nc2ccc3nc(C)sc3c2)cc1)C(=O)OCC
Reply: > 100 µM

Query: // fetch TGI given entry Cn1cc(C2=C(c3cn(CCCCO)c4ccccc34)C(=O)NC2=O)c2ccccc21
Reply: > 25 µM

Query: // fetch TGI given entry Cn1ccc(C(=O)NCCN(CCNC(=O)c2ccn(C)c(=O)c2O)CCNC(=O)c2cccc(=O)n2O)c(O)c1=O
Reply: > 100 µM

Query: // fetch TGI given entry CC(C)Oc1ccc2cc(-c3nn(CC4CCNCC4)c4ncnc(N)c34)ccc2c1
Reply: 33.8 µM

Query: // fetch TGI given entry CO/N=C(\COc1ccc2c(c1)oc(=O)c1cc(OC)ccc12)c1ccc(OC)cc1
Reply: > 100 µM

Query: // fetch TGI given entry O=C(O)C(NCc1ccccc1)C(NCc1ccccc1)C(=O)O (stereo not given)
Reply: > 100 µM

Query: // fetch TGI given entry Nc1nc(/C=C\c2ccc([N+](=O)[O-])s2)nc(N2CCCC2)n1
Reply: 2.41 µM

Query: // fetch TGI given entry Clc1ccc(C2C3COc4ccccc4C3=NN2c2ccccc2)cc1 (stereo not given)
Reply: > 48.7 µM

Query: // fetch TGI given entry CCC(C)OC(=O)/C(Br)=C1/OC(=O)c2ccccc2-c2ccccc21 (stereo not given)
Reply: 68.2 µM

====

# System: SW-620 colon
# METHOD: NCI tumour cell line growth inhibition, 48 h; in the data active = GI50 below about 0.43 µM; inactive = the rest
Respond using exactly one of the listed classes: active, inactive

Query: How did this test come out for CS(=O)(=O)CCNCc1nc(-c2ccc3ncnc(Nc4ccc(OCc5cccc(C(F)(F)F)c5)cc4)c3c2)cs1 ?
Reply: inactive

Query: How did this test come out for CCOC(=O)C(Cc1ccc(CCCC(=O)NCCC(=O)Nc2ccc3nc(C)sc3c2)cc1)C(=O)OCC ?
Reply: inactive

Next:
Query: How did this test come out for CCSc1ncnc2c1ncn2C1OC(CO)C(O)C1O (configuration not stated) ?
Reply: active

Query: How did this test come out for COc1cc(-c2cc(-c3cc4c([nH]c5ccccc54)c(-c4cc(OC)c(OC)c(OC)c4)n3)cc(-c3ccccc3)n2)cc(OC)c1OC ?
Reply: inactive

====

# Tested on: SF-268 CNS
# METHOD: NCI tumour cell line growth inhibition, 48 h
Reported GI50 is given for each of the following compounds.

See these solved cases before continuing.
Query: Give SF-268 CNS GI50 for the following compound: CO/N=C(\COc1ccc2c(c1)oc(=O)c1cc(OC)ccc12)c1ccc(OC)cc1
Reply: > 100 µM

Query: Give SF-268 CNS GI50 for the following compound: CCSc1ncnc2c1ncn2C1OC(CO)C(O)C1O (centres undefined)
Reply: 1.02 µM

Query: Give SF-268 CNS GI50 for the following compound: COc1cc(-n2cc(-c3ccc(F)cc3)[nH]c2=O)cc(OC)c1OC
Reply: > 100 µM

Query: Give SF-268 CNS GI50 for the following compound: CC(C)Oc1ccc2cc(-c3nn(CC4CCNCC4)c4ncnc(N)c34)ccc2c1
Reply: 8.8 µM

Query: Give SF-268 CNS GI50 for the following compound: COc1cc(F)ccc1-c1ncnc(Nc2cccc(CS(C)(=N)=O)c2)n1 (centres undefined)
Reply: 0.707 µM

Next:
Query: Give SF-268 CNS GI50 for the following compound: COc1ccc(-c2nn(-c3ccc(NC(=O)c4ccc(Cl)c(Cl)c4)cc3)cc2-c2ccncc2)cc1Cl
Reply: 4.25 µM

Query: Give SF-268 CNS GI50 for the following compound: C=CCCCCOc1ccccc1-c1cnc(OCCCCC=C)n1C
Reply: 4.21 µM

Query: Give SF-268 CNS GI50 for the following compound: COc1ccc(/C=C2/N=C(c3ccccc3)N(c3c(C)n(C)n(-c4ccccc4)c3=O)C2=O)cc1OC
Reply: > 100 µM

Each recorded value in this set is attributed to PubChem BioAssay (NCI).
